Listing: EC50 of selected compounds
Target or system: human mGluR2 receptor (Homo sapiens)
Construct: expressed in transfected cells; host or cells: CHO cells (membrane preparation)
Sequence (Q14416 19-872): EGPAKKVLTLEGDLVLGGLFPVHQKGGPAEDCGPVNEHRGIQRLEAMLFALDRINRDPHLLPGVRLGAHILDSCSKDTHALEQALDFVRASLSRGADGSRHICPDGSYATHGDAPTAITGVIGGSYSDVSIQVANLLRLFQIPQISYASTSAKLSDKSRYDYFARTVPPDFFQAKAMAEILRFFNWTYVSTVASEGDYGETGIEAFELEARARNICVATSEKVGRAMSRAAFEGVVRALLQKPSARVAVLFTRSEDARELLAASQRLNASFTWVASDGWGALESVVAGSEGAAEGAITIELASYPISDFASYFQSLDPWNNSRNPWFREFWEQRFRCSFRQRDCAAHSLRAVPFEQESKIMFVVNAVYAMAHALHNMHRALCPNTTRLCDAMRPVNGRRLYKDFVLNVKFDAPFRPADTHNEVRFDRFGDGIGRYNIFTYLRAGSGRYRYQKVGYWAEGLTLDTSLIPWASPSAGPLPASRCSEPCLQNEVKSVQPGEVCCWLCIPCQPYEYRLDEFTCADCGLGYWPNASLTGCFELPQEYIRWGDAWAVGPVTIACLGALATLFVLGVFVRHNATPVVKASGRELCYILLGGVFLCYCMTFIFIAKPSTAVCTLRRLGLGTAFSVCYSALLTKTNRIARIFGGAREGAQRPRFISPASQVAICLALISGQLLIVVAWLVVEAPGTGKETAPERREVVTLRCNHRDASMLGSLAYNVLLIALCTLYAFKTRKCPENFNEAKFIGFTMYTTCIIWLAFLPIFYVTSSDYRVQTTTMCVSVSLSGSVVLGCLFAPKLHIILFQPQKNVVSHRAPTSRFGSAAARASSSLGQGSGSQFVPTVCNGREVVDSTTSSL
Test method notes: [35S]GTPγS binding assay (GTPγS-PAM): positive allosteric modulation in presence of glutamate at EC25, membranes from transfected CHO cells
Type: biochemical
Cond: in presence of mGluR2 agonist glutamate at predetermined EC25 concentration, averages of duplicate values of 11-concentration response curves, read-out: GTPgS - hR2 PAM pEC50 (converted)
// note: answer is a bare numeric in nM

Completed entries (count: 6):
Compound	EC50 / nM
CC(C)CCn1ccc(-c2ccc(NC3CC3)cc2)c(C#N)c1=O	126
COC1(c2ccccc2)CCN(c2ccn(CCC(C)C)c(=O)c2C#N)CC1	126
CC(C)CCn1ccc(-c2ccc(OCc3ccncc3)cc2)c(C#N)c1=O	501
CC(C)CCn1ccc(C2CCN(Cc3ccccc3)C2)c(C#N)c1=O (stereo not shown)	1260
CC(C)CCn1ccc(-c2cccc(F)c2)c(C#N)c1=O	2510
CC(C)CCn1ccc(N2CCN(Cc3cccc(C(F)(F)F)c3)CC2)c(C#N)c1=O	794

Task: Identify the reported EC50 for the following entry. COc1ccc(-c2ccn(Cc3ccc(Cl)cc3)c(=O)c2C#N)cc1
Result: 501

Task: Look up EC50 of COCc1ccc(-c2ccn(CCC(C)C)c(=O)c2C#N)cc1 and report it.
Result: 2000

Task: Give the reported value of EC50 for this record: CC(C)Cn1ccc(-c2ccc(Oc3ccncc3)cc2)c(C#N)c1=O
Result: 3980

Task: Supply measured EC50 of COc1ccc(C=Cc2ccn(CCC(C)C)c(=O)c2C#N)cc1 in your reply.
Result: 316
